Target: Notch1 (Homo sapiens, UniProt P46531)
Construct: pLV[Tet]-Puro-TRE3G>Notch1-ICD
Sequence (P46531 1754-2555 limits assumed): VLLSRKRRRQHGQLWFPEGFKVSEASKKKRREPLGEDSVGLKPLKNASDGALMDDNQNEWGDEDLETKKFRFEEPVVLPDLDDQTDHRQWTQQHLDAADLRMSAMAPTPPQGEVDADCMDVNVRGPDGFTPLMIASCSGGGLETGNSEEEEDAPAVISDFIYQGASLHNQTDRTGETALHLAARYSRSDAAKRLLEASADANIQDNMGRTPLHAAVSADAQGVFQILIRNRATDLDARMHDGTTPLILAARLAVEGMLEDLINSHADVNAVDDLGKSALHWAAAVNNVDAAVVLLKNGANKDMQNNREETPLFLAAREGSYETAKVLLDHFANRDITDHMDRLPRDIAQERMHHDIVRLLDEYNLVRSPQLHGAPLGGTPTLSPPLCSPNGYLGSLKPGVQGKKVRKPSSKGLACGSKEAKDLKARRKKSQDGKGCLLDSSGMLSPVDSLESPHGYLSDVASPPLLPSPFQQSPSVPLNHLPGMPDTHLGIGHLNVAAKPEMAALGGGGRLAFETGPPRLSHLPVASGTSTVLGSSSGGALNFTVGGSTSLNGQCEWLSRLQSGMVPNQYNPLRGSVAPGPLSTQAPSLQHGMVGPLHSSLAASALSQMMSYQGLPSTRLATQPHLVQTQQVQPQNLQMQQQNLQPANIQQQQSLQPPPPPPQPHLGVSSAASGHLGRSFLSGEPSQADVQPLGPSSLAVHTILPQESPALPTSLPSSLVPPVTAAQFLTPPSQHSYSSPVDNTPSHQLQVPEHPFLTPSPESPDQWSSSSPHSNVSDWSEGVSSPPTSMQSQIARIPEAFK
Assay: Notch1 Reporter Assay (CSL-responsive luciferase, doxycycline-induced Notch-ICD in 293A cells)
Details: 25 ng/mL Dox, 24 h, luciferase normalized to cell viability
Method: 293A cells expressing 1) pCMV-Tet-On 3G, 2) pLV[Tet]-Puro-TRE3G>Notch1-ICD, 3) pLV[Tet]-Puro-TRE3G>Notch2-ICD, 4) pLV[Tet]-Puro-TRE3G>Notch3-ICD, and 5) pCSL-RElement-Luc were used. […] Results are analyzed and IC50's are determined in GraphPad by nonlinear regression curve fitting (4 parameter) of dose response curves.
Counter-ions that a name gives are not always drawn.
readout.label: pIC50
Bear in mind: pIC50 is minus log10 of a mol/L concentration; give just that figure.

Worked cases, answers included:
# compound, pIC50
records = [
    ("COc1cc(-c2cc(C)cc3c2n(C)c(=O)n3CC(=O)Nc2ccc(F)cc2)cc(F)c1OCc1nnc[nH]1 [SSTN-606, hydrochloride salt]", 4.82),
    ("COc1cc(-c2cc(C(F)(F)F)cc3c2n(C)c(=O)n3CC(=O)Nc2cccnc2F)cc(F)c1OCc1nnc[nH]1 [SSTN-612]", 4.88),
]

Item COc1cc(-c2cc(C(F)(F)F)cc3c2n(C)c(=O)n3CC(=O)Nc2cccc(N3CCOCC3)c2)cc(F)c1OCc1nnc[nH]1 [SSTN-558] has what recorded pIC50?
5.03

And for COc1cc(-c2cc(C(F)(F)F)cc3c2n(C)c(=O)n3CC(=O)Nc2cccc(C(F)(F)F)c2)cc(F)c1OCc1nnc[nH]1 [SSTN-495, hydrochloride] ?
5.37

Next compound: Cn1c(=O)n(CC(=O)N(Cc2nnc[nH]2)c2ccc(F)cc2)c2cc(C(F)(F)F)cc(-c3cc(Cl)c(OCc4nnc[nH]4)c(Cl)c3)c21 [SSTN-594]
5.35

Next compound up: COc1cc(-c2cc(C(F)(F)F)cc3c2n(C)c(=O)n3CC(=O)Nc2cccc(-c3ccccc3)c2)cc(F)c1OCc1nnc[nH]1 [SSTN-546]
5.38
